- Assay notes: Tumor uptake and tissue distribution in mice bearing SJSA-1 xenografts
- Type: in vivo, athymic mice
- Condition summary: athymic, mouse, stomach, iv, 166.5 kBq, total radioactivity
Attribute measured: tissue uptake at 24 h (%ID/g)
Expressed in %ID/g, but write only the number.

Exam item: Record request: tissue uptake at 24 h value, item CC(=O)N[C@@H](CCCCNC(=O)c1cccc(I)c1)C(=O)NCCCCCC(=O)N[C@H](C(=O)N[C@@H](CO)C(=O)N[C@@H](Cc1ccccc1)C(=O)N[C@]1(C)CCCCCCC=CCCC[C@@](C)(C(=O)N[C@@H](CCC(=O)O)C(=O)N[C@@H](CC(N)=O)C(=O)N[C@@H](Cc2ccccc2)C(N)=O)NC(=O)[C@H](CC(C)C)NC(=O)[C@H](CC(C)C)NC(=O)[C@H](C)NC(=O)[C@H](Cc2c[nH]c3ccccc23)NC(=O)[C@H](Cc2ccc(O)cc2)NC(=O)[C@H](CCC(=O)O)NC1=O)[C@@H](C)O [[^125I]SIB-VIP116]
Marked response: 0.84
